Values compiled from ChEMBL document CHEMBL3232746.

Hi there, I'd appreciate the recorded IC50 for every entry that follows.
- assayedTarget: Histone-arginine methyltransferase CARM1 (Homo sapiens, UniProt Q86X55)
- Sequence (Q86X55 whole entry): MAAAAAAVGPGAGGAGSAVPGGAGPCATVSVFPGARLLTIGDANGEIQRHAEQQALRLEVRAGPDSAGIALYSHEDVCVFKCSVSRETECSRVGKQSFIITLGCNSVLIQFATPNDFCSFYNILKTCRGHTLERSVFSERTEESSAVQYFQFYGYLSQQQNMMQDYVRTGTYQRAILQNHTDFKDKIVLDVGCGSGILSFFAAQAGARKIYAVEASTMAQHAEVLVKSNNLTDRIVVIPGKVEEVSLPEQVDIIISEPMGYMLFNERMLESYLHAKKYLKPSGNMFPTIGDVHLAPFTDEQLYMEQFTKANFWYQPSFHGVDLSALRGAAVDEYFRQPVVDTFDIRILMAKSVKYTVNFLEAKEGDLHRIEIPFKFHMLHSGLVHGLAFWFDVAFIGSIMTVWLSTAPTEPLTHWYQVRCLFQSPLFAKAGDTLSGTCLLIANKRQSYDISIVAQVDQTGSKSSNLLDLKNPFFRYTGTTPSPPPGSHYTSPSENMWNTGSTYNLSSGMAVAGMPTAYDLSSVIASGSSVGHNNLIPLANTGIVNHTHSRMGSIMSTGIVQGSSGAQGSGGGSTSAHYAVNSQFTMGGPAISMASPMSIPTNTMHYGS

Sample answers from the record:
>>> assayvalue("N=C(N)c1ccc(/C=C/c2ccc(C(=N)N)cc2)cc1")
"400 µM"
>>> assayvalue("N=C(N)c1ccc(-c2ccc(-c3ccc(C(=N)N)cc3)o2)cc1")
"> 400 µM"

IN: Which IC50 is listed for "N=C(N)c1ccc(-c2ccc(-c3ccc(C(=N)N)nc3)o2)cc1" ?
OUT: > 400 µM
